# TARGET: cyclin E/CDK2 enzyme (Homo sapiens, UniProt P24941)
# Construct: made in house; host or cells: Sf9 insect cells, recombinant baculovirus
# METHOD_DESCRIPTION: CDK2 ELISA kinase assay (phospho-Rb ser 795 detection)
# Format: biochemical
# RUN_PARAMETERS: In Vitro Enzyme Assays, read-out: CDK2 IC50
pIC50: −log10 of the molar value.
Listing of recorded pIC50 by entry.

Worked cases, pIC50 given:
CC(C)N1CCN(c2ccc(N/C=C3\C(=O)NC(=O)c4ccc(I)cc43)cn2)CC1    < 4.30
CCCOc1cnc(CNC=C2C(=O)NC(=O)c3ccc(-n4cccc4)cc32)cc1O    4.83
CN1CCN(NC(=O)Nc2ccc(N/C=C3\C(=O)NC(=O)c4ccc(Br)cc43)cc2)CC1    < 4.30

Okay, now this compound:
Entry `COCCOc1ccc(CN/C=C2\C(=O)NC(=O)c3ccc(Br)cc32)cc1O` , system cyclin E/CDK2 enzyme (Homo sapiens, UniProt P24941): what pIC50 was measured? < 4.30

###

# TARGET: cyclin D1/cdk 4 enzyme (Homo sapiens)
# Construct: made in house; host or cells: Sf9 insect cells, recombinant baculovirus
# METHOD_DESCRIPTION: CDK4 ELISA kinase assay (phospho-Rb ser 795 detection)
# Type: biochemical
# RUN_PARAMETERS: In Vitro Enzyme Assay, cyclin D1/cdk 4, read-out: CDK4 IC50
pIC50: −log10 of the molar value.
VALUE_KIND: pIC50

Worked cases, pIC50 given:
CSc1ccc(-c2ccc3c(c2)C(=CNCc2ccc(S(N)(=O)=O)cc2)C(=O)NC3=O)cc1    4.30
O=C1NC(=O)c2ccc(-c3ccccc3F)cc2C1=CNCc1ccc(O)c(O)c1    7.52
O=C1NC(=O)c2ccccc2C1=CNc1ccc(O)c2ncccc12    4.95
O=C1NC(=O)c2ccc(-c3cccc(C(=O)O)c3)cc2C1=CNCc1ccc(O)c(O)c1    6.09
CS(=O)(=O)Nc1cccc(CNC=C2C(=O)NC(=O)c3ccccc32)c1    4.63
CN1CCN(c2ccc(NC=C3C(=O)NC(=O)c4ccc(-c5ccc(Cl)cc5Cl)cc43)cc2)CC1    4.65

(1) NS(=O)(=O)c1ccc(CNC=C2C(=O)NC(=O)c3ccc(-c4ccccc4F)cc32)cc1
(2) COc1ccc(-c2ccc3c(c2)C(=CNCc2ccc(O)c(O)c2)C(=O)NC3=O)cc1OC
Given the listed records, identify the one among 1 and 2 with higher pIC50. I would appreciate it if you answered with the label of your choice. 2

###

Listing of recorded melting point by entry.

Give the measured melting point of `COc1cc2c(cc1Br)/C(=C/Nc1ccc(CN3CCCCC3)cc1)C(=O)NC2=O` . 264 to 267 °C

###

# TARGET: cyclin D1/cdk 4 enzyme (Homo sapiens)
# Construct: made in house; host or cells: Sf9 insect cells, recombinant baculovirus
# METHOD_DESCRIPTION: CDK4 ELISA kinase assay (phospho-Rb ser 795 detection)
# Type: biochemical
# RUN_PARAMETERS: In Vitro Enzyme Assay, cyclin D1/cdk 4, read-out: CDK4 IC50
VALUE_KIND: IC50 (µM)

Worked cases, IC50 given:
NS(=O)(=O)c1ccc(CNC=C2C(=O)NC(=O)c3ccc(C=CCn4ccnc4)cc32)cc1    2.2
NS(=O)(=O)c1ccc(CNC=C2C(=O)NC(=O)c3ccc(-c4ccc5ccccc5c4)cc32)cc1    3.1
NS(=O)(=O)c1ccc(CNC=C2C(=O)NC(=O)c3ccc(-c4cc5ccccc5s4)cc32)cc1    1.2

(P) N#Cc1ccc(-c2ccc3c(c2)C(=CNCc2ccc(O)c(O)c2)C(=O)NC3=O)cc1
(Q) CCCN(Cc1ccc(NC=C2C(=O)NC(=O)c3ccccc32)cc1)CC1CC1
Given the listed records, identify the one among P and Q with higher IC50. I would appreciate it if you answered with the label of your choice. Q
(Q: 9.2 µM, P: 0.06 µM)

(a) CSc1ccc(-c2ccc3c(c2)C(=CNc2ccc(CC#N)cc2)C(=O)NC3=O)cc1
(b) N#CCc1ccc(NC=C2C(=O)NC(=O)c3ccc(-c4ccccc4Cl)cc32)cc1
(c) CS(=O)(=O)Nc1ccc(CNC=C2C(=O)NC(=O)c3ccccc32)cc1
Order the records by IC50, with each subsequent value no larger than the one before. Could you list the labels in the order requested? c, a, b

###

# TARGET: cyclin E/CDK2 enzyme (Homo sapiens, UniProt P24941)
# Construct: made in house; host or cells: Sf9 insect cells, recombinant baculovirus
# METHOD_DESCRIPTION: CDK2 ELISA kinase assay (phospho-Rb ser 795 detection)
# Format: biochemical
# RUN_PARAMETERS: In Vitro Enzyme Assays, read-out: CDK2 IC50
pIC50: −log10 of the molar value.
VALUE_KIND: pIC50

Worked cases, pIC50 given:
COC[C@@H]1CCCN1Cc1ccc(N/C=C2\C(=O)NC(=O)c3ccc(I)cc32)cc1 [Example 285]    < 4.30
CN1CCN(CCN(C)c2ccc(NC=C3C(=O)NC(=O)c4ccc(Br)cc43)cc2)CC1 (stereo in doubt) [Example 261]    < 4.30
CN(C)CCSc1ccc(N/C=C2\C(=O)NC(=O)c3ccc(Br)cc32)cc1 [Example 229]    < 4.30

Okay, now this compound:
Give the measured pIC50 of O=C1NC(=O)c2ccccc2/C1=C/Nc1ccc(CN2CCC(O)CC2)cc1 [Example 23] . 4.59

###

# TARGET: cyclin D1/cdk 4 enzyme (Homo sapiens, UniProt P11802)
# Construct: made in house; host or cells: Sf9 insect cells, recombinant baculovirus
# Sequence (P11802 whole entry, species assumed): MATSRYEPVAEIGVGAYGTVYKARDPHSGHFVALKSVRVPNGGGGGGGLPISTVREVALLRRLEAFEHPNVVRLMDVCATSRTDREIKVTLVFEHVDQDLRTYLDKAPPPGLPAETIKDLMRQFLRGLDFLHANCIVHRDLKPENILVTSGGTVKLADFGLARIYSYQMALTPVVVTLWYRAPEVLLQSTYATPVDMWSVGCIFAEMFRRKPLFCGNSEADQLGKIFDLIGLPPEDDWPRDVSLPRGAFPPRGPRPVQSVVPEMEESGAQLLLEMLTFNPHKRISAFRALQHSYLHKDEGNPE
# Sequence (P24385 whole entry partner, species assumed): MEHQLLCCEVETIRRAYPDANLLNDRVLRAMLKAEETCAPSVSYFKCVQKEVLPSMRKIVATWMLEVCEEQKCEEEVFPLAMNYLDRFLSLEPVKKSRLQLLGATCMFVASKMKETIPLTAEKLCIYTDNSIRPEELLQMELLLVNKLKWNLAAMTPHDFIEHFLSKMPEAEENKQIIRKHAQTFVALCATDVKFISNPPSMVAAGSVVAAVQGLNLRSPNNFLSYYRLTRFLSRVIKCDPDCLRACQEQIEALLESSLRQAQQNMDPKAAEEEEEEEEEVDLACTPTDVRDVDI
# METHOD_DESCRIPTION: CDK4 ELISA kinase assay (phospho-Rb ser 795 detection)
# Format: biochemical
# RUN_PARAMETERS: In Vitro Enzyme Assays, 200 μM ATP, read-out: CDK4 IC50
VALUE_KIND: IC50 (nM)

CN1CCN(c2ccc(N/C=C3\C(=O)NC(=O)c4ccc(-c5ccoc5)cc43)cc2F)CC1 [Example 297]    80
COc1cc(CN/C=C2\C(=O)NC(=O)c3ccc(-c4ccc(Oc5ccccc5)cc4)cc32)cc(O)c1OC [Example 100]    340
C[C@@H]1CN(c2ccc(N/C=C3\C(=O)NC(=O)c4ccc(-c5ccoc5)cc43)cc2)C[C@H](C)N1 [Example 207]    200

(A) O=C1NC(=O)c2ccc(-c3ccsc3)cc2C1=NNc1ccc(CN2CCCCC2)cc1 [Example 152]
(B) COC[C@H]1CCCN1Cc1ccc(N/C=C2\C(=O)NC(=O)c3ccc(Br)cc32)cc1 [Example 38]
(C) CN1CCN(c2ccc(N/C=C3\C(=O)NC(=O)c4ccc(F)cc43)cc2)CC1 [Example 70]
Order the records by IC50, with each subsequent value no larger than the one before. Could you list the labels in the order requested? C, B, A
(C: 9400 nM, B: 1100 nM, A: 60 nM)

(I) C[C@@H]1CN(c2ccc(N/C=C3\C(=O)NC(=O)c4ccc(-c5ccoc5)cc43)cc2)C[C@H](C)N1C(=O)CN(C)C [Example 373]
(II) O=C1NC(=O)c2ccc(-c3ccsc3)cc2/C1=C/Nc1ccc(N2CCN(CC3CC3)CC2)nc1 [Example 418]
(III) O=C1NC(=O)c2ccc(I)cc2/C1=C/Nc1ccc(N2CCN(CC3CC3)CC2)cc1 [Example 391]
(IV) CN(C)C/C=C/C(=O)N1CCCC1c1ccc(N/C=C2\C(=O)NC(=O)c3ccc(I)cc32)cc1 (stereo not shown) [Example 402]
Order the records, beginning with the lowest IC50 and ending with the highest. Could you list the labels in the order requested? I, II, III, IV
(I: 10 nM, II: 20 nM, III: 500 nM, IV: 2900 nM)

(a) COC(C)C1CCCN1Cc1ccc(N/C=C2\C(=O)NC(=O)c3ccc(I)cc32)cc1 (stereo not shown) [Example 375]
(b) CN1CCN(c2ccc(N/C=C3\C(=O)NC(=O)c4ccc([N+](=O)[O-])cc43)cc2)CC1 [Example 33]
(c) O=C1NC(=O)c2ccccc2/C1=C/Nc1ccc(CN2CCC(O)CC2)cc1 [Example 23]
Order the records by IC50, with each subsequent value no larger than the one before. Could you list the labels in the order requested? b, c, a

(P) CC1CN(c2ccc(N/C=C3\C(=O)NC(=O)c4ccc([N+](=O)[O-])cc43)cc2)CC(C)N1 (stereo not shown) [Example 235]
(Q) COc1cc(CN/C=C2\C(=O)NC(=O)c3ccc(I)cc32)cc(O)c1OC [Example 89]
Between P and Q , which one has the lower reported IC50 value? I would appreciate it if you answered with the label of your choice. Q
(Q: 2 nM, P: 17300 nM)

###

Listing of recorded pIC50 by entry.
# Test system: LoVo
# METHOD_DESCRIPTION: Cytotoxicity assay (SRB), LoVo
# Type: cell-based
# RUN_PARAMETERS: Homo sapiens, LoVo, 72 h, LoVo cells, 3 days, SRB; read-out: In Vitro Cellular Activity IC50 LOVO
Reminder that pIC50 means the negative base-10 logarithm of the concentration expressed in mol/L.

Worked cases, pIC50 given:
CONCCCc1ccc(N/C=C2\C(=O)NC(=O)c3ccc(Br)cc32)cc1 [Example 875]    4.90
COc1ccc(-c2ccc3c(c2)C(=CNc2ccc(N4CCN(C)CC4)cc2)C(=O)NC3=O)cc1 [Example 682]    5.28
C[C@@H]1CN(c2ccc(N/C=C3\C(=O)NC(=O)c4ccc(Br)cc43)nc2)C[C@H](C)N1 [Example 469]    5.92
CN(C)C/C=C/C(=O)N1CCCC1c1ccc(N/C=C2\C(=O)NC(=O)c3ccc(I)cc32)cc1 (centres unmarked) [Example 402]    5.22
CN1CCN(c2ccc(NC=C3C(=O)NC(=O)c4ccc(C=CCO)cc43)cc2)CC1 [Example 724]    4.98
O=C1NC(=O)c2ccc(I)cc2/C1=C/Nc1ccc(CN2CCCCC2CO)cc1 (centres unmarked) [Example 439]    5.60
O=C1NC(=O)c2ccc(I)cc2/C1=C/Nc1ccc(N2CCC(CO)CC2)cc1 [Example 434]    5.09
CN1CCCC1c1ccc(N/C=C2\C(=O)NC(=O)c3ccc(-n4cccc4)cc32)nc1 (centres unmarked) [Example 459]    5.02
NS(=O)(=O)c1ccc(CNC=C2C(=O)NC(=O)c3ccc(-c4ccccc4F)cc32)cc1 [Example 740]    5.00
O=C1CC[C@@H](CN/C=C2\C(=O)NC(=O)c3ccc(I)cc32)N1 (stereo in doubt) [Example 427]    4.64

Okay, now this molecule:
Give the measured pIC50 of CN1CCN(c2ccc(N/C=C3\C(=O)NC(C)(C)c4ccc(Br)cc43)cc2)CC1 [Example 452] . 5.82
